target or system: T1, human IL-1RAcP on 293T/17-FR cells (human, UniProt Q9NPH3 21-570)
T1 sequence (looked up): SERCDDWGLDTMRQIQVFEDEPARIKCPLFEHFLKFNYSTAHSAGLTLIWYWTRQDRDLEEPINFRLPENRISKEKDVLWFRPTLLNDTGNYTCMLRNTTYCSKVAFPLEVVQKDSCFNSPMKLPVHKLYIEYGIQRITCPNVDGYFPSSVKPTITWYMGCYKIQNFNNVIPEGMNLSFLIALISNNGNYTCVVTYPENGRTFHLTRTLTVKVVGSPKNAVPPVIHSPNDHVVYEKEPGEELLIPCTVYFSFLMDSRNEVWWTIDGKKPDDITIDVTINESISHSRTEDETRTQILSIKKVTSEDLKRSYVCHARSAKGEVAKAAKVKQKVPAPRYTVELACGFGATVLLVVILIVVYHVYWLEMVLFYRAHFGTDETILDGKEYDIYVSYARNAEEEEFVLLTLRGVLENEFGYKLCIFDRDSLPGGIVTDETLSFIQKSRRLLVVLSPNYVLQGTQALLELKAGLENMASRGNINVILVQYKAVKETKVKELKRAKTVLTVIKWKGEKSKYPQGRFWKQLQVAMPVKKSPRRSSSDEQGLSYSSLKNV
assay name: cell-based or functional assay
observed property: functional reporter gene assay (% inhibition), 1 µg/mL mAb (%)
Output spec: scalar in %, unitless text.

As a guide, the following entries are already answered.
{"binder": "P013.S.01.B.E05 (antibody, V domains shown, rabbit monoclonal antibody; also called P013.A.00086.F02) VH: QSLEESGGDLVKPGASLTLTCTASGISFSSSDFMCWVRQAPGKGLEWIACIYAGSSVSIYYATWAKGRFTISKASSTTVTLQMASLTVADTATYFCARSTGSVGRGFNLWGQGTLVTVSS VL: AQVLTQTPSPVSAAVGGTVTISCQASQSVYNSNHLSWYQQKPGQPPRLLIYSASTLASGVPSRFKGSGSGTQFTLTISGVQSDDAATYYCQGEFSCVSADCIAFGGGTEVVVK", "unit of measure": "%", "measurement": 81}
{"binder": "P013.S.01.B.A03 (antibody, V domains shown, rabbit monoclonal antibody; also called P013.A.00088.A07) VH: QEQLEESGGDLVQPEGSLTVTCTASGFSFSFGYYMCWVRQAPGKGLEWIACIYGDSSDTLYANWAKGRFTVSKTSSTTVTLQMTSLTAADTATYFCARYPGGSYYNLWGPGTRVTVSS VL: ALVMTQTPASVEAAVGGTVTIKCQASQTISINLAWYQQKPGQRPKLLIYYASTLASGVPSRFSGSGSGTEFTLTISGVQSDDAATYYCQQGYTEDNIDNTFGGGTEVVVK", "unit of measure": "%", "measurement": 98}

Briefly, functional reporter gene assay (% inhibition), 1 µg/mL mAb measured for P013.S.02.B.F04 (antibody, V domains shown, rabbit monoclonal antibody; also called P013.A.00109.B02) VH: QEQLVESGGDLVKPEGSLTLTCTASGFSFSSNYWICWVRQAPGKGLEWIACIYTSTDTTYYPNWAKGRFTISKTSSTTVTLQMTSLTAADTATYFCARDLLVVTSFNLWGQGTLVTVSS VL: ALVMTQTPSPVSAAVGGTVTINCQASEDIYSNLAWFQQKPGQPPKLLIYGASTLASGVPSRFSGSGSGTEFTLTISGVQSDDAATYYCLGVCTDISADDLYNTFGGGTEVVVK : 81
